// values below are reported bioavailability
# Experimental Protocol: Oral bioavailability in rat at 3 mg/kg
# Type: ADME, organism-based
# Conditions Used: in vivo

{"columns": ["Mol", "bioavailability [%]"],
 "data": [
  ["COC(=O)N[C@H](C(=O)N1CCC[C@H]1C(=O)Nc1ccc([C@@H]2CC[C@@H](c3ccc(NC(=O)[C@@H]4CCCN4C(=O)[C@@H](NC(=O)OC)C(C)(C)C)cc3)N2c2ccc(F)cc2)cc1)C(C)(C)C", 23],
  ["COC(=O)N[C@H](C(=O)N1CCC[C@H]1C(=O)Nc1ccc([C@H]2CC[C@H](c3ccc(NC(=O)[C@@H]4CCCN4C(=O)[C@@H](NC(=O)OC)C(C)C)cc3)N2c2ccc(F)cc2)cc1)C(C)C", 22],
  ["COC(=O)N[C@H](C(=O)N1CCC[C@H]1C(=O)Nc1ccc([C@H]2CC[C@H](c3ccc(NC(=O)[C@@H]4CCCN4C(=O)[C@@H](NC(=O)OC)C(C)(C)C)cc3)N2c2ccc(C(C)(C)C)cc2)cc1)C(C)(C)C", 7.2],
  ["COC(=O)N[C@H](C(=O)N1CCC[C@H]1C(=O)Nc1ccc([C@H]2CC[C@H](c3ccc(NC(=O)[C@@H]4CCCN4C(=O)[C@@H](NC(=O)OC)C(C)C)cc3)N2c2ccc(C(C)(C)C)cc2)cc1)C(C)C", 3.1],
  ["COC(=O)N[C@H](C(=O)N1CCC[C@H]1C(=O)Nc1ccc([C@@H]2CC[C@@H](c3ccc(NC(=O)[C@@H]4CCCN4C(=O)[C@@H](NC(=O)OC)C(C)(C)C)cc3)N2c2ccc(C(C)(C)C)cc2)cc1)C(C)(C)C", 7.2]
]}

* * *

Reported Vd values follow for various compounds
# Experimental Protocol: Volume of distribution at steady state in rat at 3 mg/kg, iv
# Assay type: ADME, organism-based
# Design: dose 3 mg/kg, route intravenous
# Conditions Used: in vivo, read-out: Vdss
Assay Metric: Vd (L/kg)

{"columns": ["Mol", "Reading"],
 "data": [
  ["COC(=O)N[C@H](C(=O)N1CCC[C@H]1C(=O)Nc1ccc([C@@H]2CC[C@@H](c3ccc(NC(=O)[C@@H]4CCCN4C(=O)[C@@H](NC(=O)OC)C(C)C)cc3)N2c2ccc(C(C)(C)C)cc2)cc1)C(C)C", 5.9],
  ["COC(=O)N[C@H](C(=O)N1CCC[C@H]1C(=O)Nc1ccc([C@H]2CC[C@H](c3ccc(NC(=O)[C@@H]4CCCN4C(=O)[C@@H](NC(=O)OC)[C@@H](C)OC)cc3)N2c2ccc(F)cc2)cc1)[C@@H](C)OC", 0.9],
  ["COC(=O)N[C@H](C(=O)N1CCC[C@H]1C(=O)Nc1ccc([C@@H]2CC[C@@H](c3ccc(NC(=O)[C@@H]4CCCN4C(=O)[C@@H](NC(=O)OC)[C@@H](C)OC)cc3)N2c2ccc(F)cc2)cc1)[C@@H](C)OC", 1.3]
]}

* * *

# Experimental Protocol: Cmax in rat at 3 mg/kg, po
# Assay type: ADME, organism-based
# Set-up: dose 3 mg/kg, route oral
# Conditions Used: in vivo
Class key for Cmax values: one: < 30 ng/mL; two: ≥ 30 ng/mL and < 100 ng/mL; three: ≥ 100 ng/mL

{"columns": ["Mol", "Qualitative Label"],
 "data": [
  ["COC(=O)N[C@H](C(=O)N1CCC[C@H]1C(=O)Nc1ccc([C@@H]2CC[C@@H](c3ccc(NC(=O)[C@@H]4CCCN4C(=O)[C@@H](NC(=O)OC)[C@H]4CCOC4)cc3)N2c2ccc(F)cc2)cc1)[C@H]1CCOC1", "one"],
  ["COC(=O)N[C@H](C(=O)N1CCC[C@H]1C(=O)Nc1ccc([C@H]2CC[C@H](c3ccc(NC(=O)[C@@H]4CCCN4C(=O)[C@@H](NC(=O)OC)C(C)C)cc3)N2c2ccc(C(F)(F)F)cc2)cc1)C(C)C", "three"],
  ["COC(=O)N[C@H](C(=O)N1CCC[C@H]1C(=O)Nc1ccc([C@@H]2CC[C@@H](c3ccc(NC(=O)[C@@H]4CCCN4C(=O)[C@@H](NC(=O)OC)C(C)(C)C)cc3)N2c2ccc(F)cc2)cc1)C(C)(C)C", "three"],
  ["COC(=O)N[C@H](C(=O)N1CCC[C@H]1C(=O)Nc1ccc([C@@H]2CC[C@@H](c3ccc(NC(=O)[C@@H]4CCCN4C(=O)[C@@H](NC(=O)OC)C(C)C)cc3)N2c2ccc(F)cc2)cc1)C(C)C", "three"],
  ["COC(=O)N[C@H](C(=O)N1CCC[C@H]1C(=O)Nc1ccc([C@@H]2CC[C@@H](c3ccc(NC(=O)[C@@H]4CCCN4C(=O)[C@@H](NC(=O)OC)C(C)(C)C)cc3)N2c2ccc(C(C)(C)C)cc2)cc1)C(C)(C)C", "two"],
  ["COC(=O)N[C@H](C(=O)N1CCC[C@H]1C(=O)Nc1ccc([C@H]2CC[C@H](c3ccc(NC(=O)[C@@H]4CCCN4C(=O)[C@@H](NC(=O)OC)C(C)C)cc3)N2c2ccc(F)cc2)cc1)C(C)C", "three"],
  ["COC(=O)N[C@H](C(=O)N1CCC[C@H]1C(=O)Nc1ccc([C@@H]2CC[C@@H](c3ccc(NC(=O)[C@@H]4CCCN4C(=O)[C@@H](NC(=O)OC)[C@@H](C)OC)cc3)N2c2ccc(F)cc2)cc1)[C@@H](C)OC", "two"],
  ["COC(=O)N[C@H](C(=O)N1CCC[C@H]1C(=O)Nc1ccc([C@H]2CC[C@H](c3ccc(NC(=O)[C@@H]4CCCN4C(=O)[C@@H](NC(=O)OC)C(C)C)cc3)N2c2ccc(C(C)(C)C)cc2)cc1)C(C)C", "one"],
  ["COC(=O)N[C@H](C(=O)N1CCC[C@H]1C(=O)Nc1ccc([C@H]2CC[C@H](c3ccc(NC(=O)[C@@H]4CCCN4C(=O)[C@@H](NC(=O)OC)[C@@H](C)OC)cc3)N2c2ccc(F)cc2)cc1)[C@@H](C)OC", "three"],
  ["COC(=O)N[C@H](C(=O)N1CCC[C@H]1C(=O)Nc1ccc([C@@H]2CC[C@@H](c3ccc(NC(=O)[C@@H]4CCCN4C(=O)[C@@H](NC(=O)OC)C(C)C)cc3)N2c2ccc(C(C)(C)C)cc2)cc1)C(C)C", "one"]
]}
